Each recorded value in this set is attributed to the supplement of paper PMC13380429.

- System: Vero E6 infected with SARS-CoV-2
- EXPERIMENT DESCRIPTION: SARS-CoV-2 infection rate relative to infected DMSO; higher = more infection, active = 60 or less
- SETTINGS: 24 h
MEASURED QUANTITY: SARS-CoV-2 infection rate

{"COMPOUND": "Cc1sc2c(c1C)C(c1ccc(Cl)cc1)=N[C@@H](CC(=O)Nc1ccc(O)cc1)c1nnc(C)n1-2 (10 µM)", "SARS-CoV-2 infection rate": "114% (inactive)"}

Problem: Would you mind telling me what SARS-CoV-2 infection rate value was observed for COc1ccccc1Oc1c(NS(=O)(=O)c2ccc(C)cn2)nc(-c2ccncc2)nc1OC (10 µM) ?
Solution: 85.5% (inactive)

Problem: Would you mind telling me what SARS-CoV-2 infection rate value was observed for CCCCC(=O)OCC(=O)[C@]1(O)Cc2c(O)c3c(c(O)c2[C@@H](O[C@H]2C[C@H](NC(=O)C(F)(F)F)[C@H](O)[C@H](C)O2)C1)C(=O)c1c(OC)cccc1C3=O [valrubicin] (0.833333 µM) ?
Solution: 97% (inactive)

* * *

# inhibition of SARS-CoV-2 cytopathic effect listing for each entry below
- System: Vero E6 infected with SARS-CoV-2
- EXPERIMENT DESCRIPTION: inhibition of SARS-CoV-2 cytopathic effect; higher = more antiviral protection, active = above 15
- SETTINGS: 833.33 nM; 48 h
Your answer is read as %, so omit the unit and give the number.

Below: 3 molecules and their reported inhibition of SARS-CoV-2 cytopathic effect.
{"RECORD SMILES": "O[C@@H](COc1cccc2ncccc12)CN1CCN([C@@H]2c3ccccc3[C@@H]3[C@H](c4ccccc42)C3(F)F)CC1", "VAL": 0.85}
{"RECORD SMILES": "CN(CCCN1c2ccccc2CCc2ccccc21)CC(=O)c1ccc(Cl)cc1", "VAL": 2.86}
{"RECORD SMILES": "O=C1N(c2ccccc2)c2ccccc2C1(Cc1ccncc1)Cc1ccncc1", "VAL": -0.29}

Problem: Would you mind telling me what inhibition of SARS-CoV-2 cytopathic effect value was observed for "OC[C@@H](O)[C@@H](O[C@@H]1O[C@H](CO)[C@H](O)[C@H](O)[C@H]1O)[C@H](O)[C@@H](O)CO" ?
Solution: 0.18

* * *

- Tested on: Vero E6 infected with SARS-CoV-2
- EXPERIMENT DESCRIPTION: morphology score (similarity to uninfected cells); higher = more like uninfected cells
- SETTINGS: 24 h
MEASURED QUANTITY: morphology score
Response field accepts a number only; no unit should be typed.

Below: 4 compounds and their reported morphology score.
{"COMPOUND": "COc1ccc(-c2oc3cc(OC)ccc3c2C(=O)c2ccc(C#N)cc2)cc1 (10 µM)", "morphology score": 0.111}
{"COMPOUND": "O=Cc1cn(Cc2ccc(Cl)cc2)c2ccccc12 [oncrasin-1] (10 µM)", "morphology score": 0.108}
{"COMPOUND": "COc1ccc(Cl)c(Nc2ncnc3cc(OCC4CCN(C)CC4)c(OC)cc23)c1 (10 µM)", "morphology score": -0.108}
{"COMPOUND": "CC[C@H](C)[C@H](NC(=O)[C@H](Cc1ccc(O)cc1)NC(=O)[C@@H](NC(=O)[C@H](CCCNC(=N)N)NC(=O)[C@@H](N)CC(=O)O)C(C)C)C(=O)N[C@@H](Cc1c[nH]cn1)C(=O)N1CCC[C@H]1C(=O)O (10 µM)", "morphology score": 0.109}

Problem: Would you mind telling me what morphology score value was observed for C=CC(=O)Nc1ccc2ncnc(Nc3ccc(OCc4cccc(F)c4)c(Cl)c3)c2c1 (10 µM) ?
Solution: -0.0546

Problem: Would you mind telling me what morphology score value was observed for O=C(Cn1ccnc1[N+](=O)[O-])NCCO [etanidazole] (10 µM) ?
Solution: 0.0673

Problem: Would you mind telling me what morphology score value was observed for O=P(O)(O)C(O)(Cc1cnc2ccccn12)P(=O)(O)O [minodronic-acid] (10 µM) ?
Solution: -0.0261

Problem: Would you mind telling me what morphology score value was observed for [N-]=[N+]=CC(=O)CC[C@H](N)C(=O)O [6-diazo-5-oxo-L-norleucine] (10 µM) ?
Solution: 0.196

Problem: Would you mind telling me what morphology score value was observed for CC1(C)S[C@@H]2[C@H](NC(=O)[C@H](N)c3ccccc3)C(=O)N2[C@H]1C(=O)O [ampicillin] (10 µM) ?
Solution: 0.141
